Data origin, for the record: paper PMC7111758

// CC50 at 3 days lookup, one value per entry
Experiment: Cytostatic activity, inhibition of HEL cell growth
Type: cell-based
Settings: human, HEL cells
measurementName: CC50 at 3 days

• Nc1nc2c(ncn2COCCO)c(=O)[nH]1 [ACV, acyclovir, reference compound] = > 440 µM
• Nc1ncn(CC(O)C(F)(F)F)c(=O)n1 (stereo not drawn) = > 446 µM
• Nc1nc(O)c2ncn(COC(CO)CO)c2n1 [GCV, ganciclovir, reference compound] = > 350 µM
• O=c1[nH]c(=O)n([C@H]2C[C@H](O)[C@@H](CO)O2)cc1/C=C/Br [BVDU, brivudine, reference compound] = > 300 µM
• CC(C)OP(=O)(CO[C@H](CF)Cn1cnc(N)nc1=O)OC(C)C = > 100 µM
• Nc1ccn(C[C@@H](CO)OCP(=O)(O)O)c(=O)n1 [CDV, cidofovir, reference compound] = > 300 µM
